Molecular target: F508delCFTR (Homo sapiens, UniProt P13569, DEL508-508)
Construct: expressed in transfected cells; host or cells: CFBE41o- (human lung derived epithelial cell line), doxycycline-inducible expression
Sequence (P13569 with tags, fused parts or gaps DEL508-508): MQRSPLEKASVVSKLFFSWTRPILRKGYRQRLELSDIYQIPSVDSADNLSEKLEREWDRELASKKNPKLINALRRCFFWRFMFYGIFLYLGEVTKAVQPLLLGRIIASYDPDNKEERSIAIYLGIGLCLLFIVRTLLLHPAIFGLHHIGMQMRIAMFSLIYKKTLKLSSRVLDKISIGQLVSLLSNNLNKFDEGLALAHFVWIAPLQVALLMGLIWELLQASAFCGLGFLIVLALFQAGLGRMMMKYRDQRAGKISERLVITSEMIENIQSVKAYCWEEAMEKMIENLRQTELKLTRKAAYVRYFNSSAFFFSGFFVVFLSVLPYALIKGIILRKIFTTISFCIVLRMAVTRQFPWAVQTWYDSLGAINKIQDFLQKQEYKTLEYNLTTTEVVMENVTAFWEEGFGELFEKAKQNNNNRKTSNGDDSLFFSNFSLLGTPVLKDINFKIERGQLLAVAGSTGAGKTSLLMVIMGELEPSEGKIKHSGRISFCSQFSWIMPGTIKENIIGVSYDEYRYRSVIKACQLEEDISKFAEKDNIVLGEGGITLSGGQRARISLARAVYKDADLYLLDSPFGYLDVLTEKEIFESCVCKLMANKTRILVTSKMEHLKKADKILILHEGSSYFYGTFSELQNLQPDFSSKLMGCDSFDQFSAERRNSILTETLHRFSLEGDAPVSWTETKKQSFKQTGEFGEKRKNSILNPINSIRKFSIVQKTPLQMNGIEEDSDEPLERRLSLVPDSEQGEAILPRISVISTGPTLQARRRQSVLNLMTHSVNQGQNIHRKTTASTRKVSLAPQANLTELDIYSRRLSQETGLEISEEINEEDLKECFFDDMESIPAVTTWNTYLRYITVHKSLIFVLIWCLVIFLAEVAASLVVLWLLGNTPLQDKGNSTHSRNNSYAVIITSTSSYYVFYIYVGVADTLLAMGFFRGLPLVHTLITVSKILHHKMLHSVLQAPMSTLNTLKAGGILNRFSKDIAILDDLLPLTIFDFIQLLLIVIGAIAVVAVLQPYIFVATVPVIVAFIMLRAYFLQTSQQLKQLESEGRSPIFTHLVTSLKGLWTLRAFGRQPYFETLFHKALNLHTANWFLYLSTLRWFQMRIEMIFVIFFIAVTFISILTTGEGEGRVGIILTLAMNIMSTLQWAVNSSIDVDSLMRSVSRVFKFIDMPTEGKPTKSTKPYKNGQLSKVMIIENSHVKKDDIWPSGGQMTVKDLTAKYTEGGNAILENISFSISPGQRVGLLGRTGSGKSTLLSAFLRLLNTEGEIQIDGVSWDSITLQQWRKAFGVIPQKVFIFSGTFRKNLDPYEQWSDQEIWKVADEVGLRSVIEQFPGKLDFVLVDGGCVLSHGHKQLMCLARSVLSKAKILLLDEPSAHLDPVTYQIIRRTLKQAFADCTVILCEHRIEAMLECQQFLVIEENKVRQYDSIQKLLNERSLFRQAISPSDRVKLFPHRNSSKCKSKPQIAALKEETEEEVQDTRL
Experiment: Cell Surface Expression-Horse Radish Peroxidase (CSE-HRP) assay
Type: cell-based
Conditions: CFBE41o-F508delCFTR-HRP cells; with co-corrector (2 μM of 3-[(2R,4R)-4-({[1-(2,2-difluoro-1,3-benzodioxol-5-yl)cyclopropyl]carbonyl}amino)-7-methoxy-3,4-dihydro-2H-chromen-2-yl]benzoic acid); read-out: EC50 (with co-corrector)
pEC50: −log10 of the molar value.
observable: pEC50

In the examples that follow, each entry is paired with its recorded pEC50.
>>> result("COc1ncc(C(F)(F)F)cc1CO[C@H]1[C@H](C(C)(C)C)[C@@H](C(=O)O)N(C(=O)[C@@H]2CCCCO2)[C@H]1c1ccccc1-c1ccc(F)cc1")
"5.00 to 6.00"
>>> result("COc1ncc(C(F)(F)F)cc1CO[C@H]1[C@H](C(C)(C)C)[C@@H](C(=O)O)N(C(=O)[C@@H]2CCCO2)[C@H]1c1ccccc1Br")
"> 6.00"

query: State the recorded pEC50 for this entry: `COc1cc(C(F)(F)F)ccc1CO[C@H]1[C@H](C(C)(C)C)[C@@H](C(=O)O)N(C(=O)[C@@H]2CCCCO2)[C@H]1c1ccccc1C`
result: > 6.00

###

I'd appreciate it if you could supply EC50 values for the items below.
Biological target: F508delCFTR (Homo sapiens, UniProt P13569, DEL508-508)
Construct: expressed in transfected cells; host or cells: CFBE41o- (human lung derived epithelial cell line), doxycycline-inducible expression
Assay: Cell Surface Expression-Horse Radish Peroxidase (CSE-HRP) assay
Format: cell-based
Settings: CFBE41o-F508delCFTR-HRP cells; with co-corrector (2 μM of 3-[(2R,4R)-4-({[1-(2,2-difluoro-1,3-benzodioxol-5-yl)cyclopropyl]carbonyl}amino)-7-methoxy-3,4-dihydro-2H-chromen-2-yl]benzoic acid); read-out: EC50 (with co-corrector)

Some solved entries appear below for comparison.
>>> result("COc1ccccc1[C@H]1[C@@H](OCc2cc(C3CCC3)cnc2OC)[C@H](C(C)(C)C)[C@@H](C(=O)O)N1C(=O)[C@@H]1CCCCO1")
"< 1000 nM"
>>> result("COc1ncc(C(F)(F)F)cc1CO[C@H]1[C@H](C(C)(C)C)[C@@H](C(=O)O)N(C(=O)[C@@H]2CCCO2)[C@H]1c1cccc(Cl)c1")
"1000 to 10000 nM"
>>> result("COc1ncc(C(C)(C)C)cc1CO[C@H]1[C@H](C(C)(C)C)[C@@H](C(=O)O)N(C(=O)[C@@H]2CCCCO2)[C@H]1c1ccccc1C")
"< 1000 nM"
>>> result("COc1ccc(C(C)(C)C)cc1CO[C@H]1[C@H](C(C)(C)C)[C@@H](C(=O)O)N(C(=O)[C@@H]2CCCCO2)[C@H]1c1ccccc1C")
"< 1000 nM"
>>> result("COc1ccc(C(F)(F)F)cc1OCCO[C@H]1[C@H](C(C)(C)C)[C@@H](C(=O)O)N(C(=O)[C@@H]2CCCCO2)[C@H]1c1ccccc1C")
"1000 to 10000 nM"
>>> result("Cc1ccccc1[C@H]1[C@@H](OCc2nc3ccccc3n2C)[C@H](C(C)(C)C)[C@@H](C(=O)O)N1C(=O)[C@@H]1CCCCO1")
"1000 to 10000 nM"

Provide reported EC50 for each item, in the same order as listed.
1. COc1nc2c(C)ccc(C)c2cc1CO[C@H]1[C@H](C(C)(C)C)[C@@H](C(=O)O)N(C(=O)[C@@H]2CCCCO2)[C@H]1c1ccccc1C
2. CCc1ccccc1[C@H]1[C@@H](OCc2cc3cccc(C(F)(F)F)c3o2)[C@H](C(C)(C)C)[C@@H](C(=O)O)N1C(=O)[C@@H]1CCCCO1
3. COc1ccc(C(F)(F)F)cc1CO[C@H]1[C@H](C(C)(C)C)[C@@H](C(=O)O)N(C(=O)[C@H]2CCC[C@H](OC)C2)[C@H]1c1ccccc1
4. COc1ncc(C(F)(F)F)cc1CO[C@@H]1[C@H](C(C)(C)C)[C@@H](C(=O)O)N(C(=O)C2CCCCC2)[C@H]1c1cccnc1OC(C)C
5. COc1ccc(Cl)cc1CO[C@@H]1[C@@H](C(C)(C)C)[C@H](C(=O)O)N(C(=O)OC2CCC2)[C@@H]1c1ccccc1 (racemic)
6. COc1ccc(C(F)(F)F)cc1CO[C@@H]1[C@@H](C(C)(C)C)[C@H](C(=O)O)N(C(=O)N(C(C)C)C(C)C)[C@@H]1c1ccccc1 (single isomer, unassigned)
7. COc1ncc(C2=CCOCC2)cc1CO[C@H]1[C@H](C(C)(C)C)[C@@H](C(=O)O)N(C(=O)OC(C)C)[C@H]1c1ccccc1
8. COc1ccc(Cl)cc1COC1[C@@H](c2ccccc2)N(C(=O)C2CCCCC2)[C@@H](C(=O)O)[C@@H]1C(C)(C)C (mixture of isomers)

result:
1. < 1000 nM
2. 1000 to 10000 nM
3. < 1000 nM
4. > 10000 nM
5. 1000 to 10000 nM
6. > 10000 nM
7. 1000 to 10000 nM
8. 1000 to 10000 nM

I would be grateful if you could provide EC50 for each of the following entries.
1. COc1ncc(C(F)(F)F)cc1CO[C@H]1[C@H](C(C)(C)C)[C@@H](C(=O)O)N(C(=O)[C@@H]2CCCO2)[C@H]1c1ccccc1
2. COc1ncc(C(F)(F)F)cc1CO[C@H]1[C@H](C(C)(C)C)[C@@H](C(=O)O)N(C(=O)[C@@H]2CCOC2)[C@H]1c1ccccc1C(C)C
3. COc1ncc(C(F)(F)F)cc1CO[C@H]1[C@H](C(C)(C)C)[C@@H](C(=O)O)N(C(=O)OC(C)C)[C@H]1c1ccccc1OC(C)C

result:
1: < 1000 nM; 2: 1000 to 10000 nM; 3: < 1000 nM

Would you be so kind as to report EC50 for each listed record?
1. COc1ncc(C(F)(F)F)cc1CO[C@H]1[C@H](C(C)(C)C)[C@@H](C(=O)O)N(C(=O)[C@@H]2CCCCO2)[C@H]1c1ccccc1C(C)C
2. COc1ncc(C2CCC2)cc1CO[C@H]1[C@H](C(C)(C)C)[C@@H](C(=O)O)N(C(=O)OC(C)C)[C@H]1c1ccccc1

result:
< 1000 nM
1000 to 10000 nM

# per-item lookup of EC50; items listed below
1. COc1nc2c(C)ccc(C)c2cc1CO[C@H]1[C@H](C(C)(C)C)[C@@H](C(=O)O)N(C(=O)C2CCCCC2)[C@H]1c1cccnc1OC(C)C
2. COc1ccccc1[C@H]1[C@@H](OCc2cc(C(F)(F)F)cnc2OC)[C@H](C(C)(C)C)[C@@H](C(=O)O)N1C(=O)[C@@H]1CCCCO1
3. COc1ncc(C(F)(F)F)cc1CO[C@H]1[C@H](C(C)(C)C)[C@@H](C(=O)O)N(C(=O)[C@@H]2CCCCO2)[C@H]1c1ccccc1
4. CC(C)Oc1ncccc1[C@H]1[C@@H](OCc2cc3cc(Br)ccc3o2)[C@H](C(C)(C)C)[C@@H](C(=O)O)N1C(=O)[C@@H]1CCCCO1

result:
["1000 to 10000 nM", "< 1000 nM", "< 1000 nM", "< 1000 nM"]
